- TEST_SUMMARY: qHTS for Inhibitors of human tyrosyl-DNA phosphodiesterase 1 (TDP1): qHTS in cells in absence of CPT; further: nearly all actives have a fitted effect of over 55% in size
- RECORDED_CONDITIONS: DT40 Tdp1-/- hTDP1 cells, no CPT, ATP luminescence, 48 h
The whole screen tested about 420,000 compounds, of which about 64,000 (15%) were called active. Inconclusive results (about 27%) are left out. The call rests on the fitted dose curve; in most records, active means well fitted inhibition curve with a large enough effect; inconclusive means small, poorly fitted or top-dose-only effect; inactive means flat fitted curve, though single readings scatter. The list is a sample of the results.
Possible outcomes: label 1 = active, label 0 = inactive

{"columns": ["COMPOUND", "GROUP"],
 "data": [
  ["CCN(CC)CCN1C(=O)C(=O)/C(=C(/O)c2ccccc2)C1c1ccccc1F (configuration not stated)", "label 0"],
  ["CCC(=O)Nc1ccc2nc(C)n(Cc3ccccc3Cl)c(=O)c2c1", "label 0"],
  ["O=C1c2ccccc2C(O)N1Cc1ccccc1 (configuration not stated)", "label 0"],
  ["O=C(N[C@H]1C/C=C\\C(c2ccc(F)cc2)N(Cc2ccccc2)C(=O)C1)OCC1c2ccccc2-c2ccccc21 (some centres not stated)", "label 1"],
  ["COC(=O)CN1C(=O)C(O)=C(C(C)=O)C1c1ccc([N+](=O)[O-])cc1 (configuration not stated)", "label 0"],
  ["CCc1cccc(CC)c1NC(=O)Cn1c(=O)c(-c2cc(C)ccc2NC(C)=O)nc2ccccc21", "label 0"],
  ["COc1cccc(NC(=O)CN(C)C(=O)CSCc2nc3scc(-c4cccs4)c3c(=O)[nH]2)c1", "label 0"],
  ["Cc1ccc(S(=O)(=O)N2[C@@H](c3cccc(Cl)c3)C(C(=O)O)=CC[C@H]2c2ccc(Cl)c(Cl)c2)cc1", "label 0"],
  ["COc1ccc(C2CC(=O)Nc3sc(=N)c4c(N)c(C#N)c(N)nc4c32)cc1OC (configuration not stated)", "label 0"],
  ["COc1ccc(Cc2nnc(SCC(=O)c3cccc([N+](=O)[O-])c3)n2C)cc1", "label 0"],
  ["CCOc1ccc(C(=O)Nc2c3c(nn2-c2ccccc2)CS(=O)(=O)C3)cc1", "label 0"],
  ["C#CCOCCOCCOCCNc1nc(N2CCN(C(=O)[C@H](C(C)C)n3cc(CCO)nn3)CC2)nc(N2CCN(C(=O)[C@H](C(C)C)n3cc(CCO)nn3)CC2)n1", "label 0"],
  ["NC1=NOC(=O)C1C1CCCCC1 (configuration not stated)", "label 1"],
  ["CCOc1ccccc1CN1CCN(C2CCC2)CC1CCO (configuration not stated)", "label 0"],
  ["CCOC(=O)c1sc(NC(=O)CSc2nc(O)c(Cc3ccccc3)c(=O)[nH]2)nc1C", "label 0"],
  ["CCCCC[C@@H]1C=C(C(=O)OCC)[C@H](c2ccccc2)N1S(=O)(=O)c1ccc(C)cc1", "label 1"],
  ["CC1(C)O[C@@H]2[C@H](O1)[C@@H](COS(=O)(=O)O)O[C@H]2n1ccc(=O)[nH]c1=O", "label 0"],
  ["O=C(CN1CCOCC1)Nc1c(-c2ccccc2)c2cc(Br)ccc2[nH]c1=O", "label 0"],
  ["Cc1cc(C)c(C#N)c(SCC(=O)Nc2ccccc2)n1", "label 0"],
  ["CCOC(=O)c1cc(-c2sc(NC(=O)c3ccccc3)nc2C)n(Cc2ccccc2)n1", "label 1"],
  ["COc1ccc(-n2c(=O)c3ccccc3n(Cc3ccccc3Cl)c2=O)cc1", "label 0"],
  ["CCOc1ccc(CN(C)C(=O)c2ccc(=O)[nH]c2)cc1", "label 0"],
  ["N#Cc1c(N)nc2c3c(sc(=N)c2c1N)NC(=O)CC3c1ccccc1Cl (configuration not stated)", "label 1"],
  ["O=C(Cc1ccccc1)NCC1OCCc2ccccc21 (configuration not stated)", "label 0"],
  ["CNc1nc(SC)nc(N(C#N)CC(=O)OC)n1", "label 0"],
  ["CCOC(=O)c1cc(NC(=O)c2cccnc2)ccn1", "label 0"],
  ["Cc1cccc(NC(=O)CSc2nnc(CCNC(=O)OC(C)(C)C)o2)c1C", "label 0"],
  ["CCOC(=O)c1cc(OC(=O)c2ccccc2Cl)n(-c2ccccc2)n1", "label 0"],
  ["CCOC(=O)C1C(C)C(C(C)(C)C)N(S(=O)(=O)c2ccc(C)cc2)C1c1ccccc1 (configuration not stated)", "label 1"],
  ["CCC(=O)Nc1ccc(C)cc1-c1nc2ccccc2n(Cc2ccccc2)c1=O", "label 0"],
  ["CC(=O)c1nc2ccccc2n1Cc1ccccc1", "label 0"],
  ["O=C(N[C@@H](Cc1c[nH]c2ccccc12)C(=O)O)OCC1c2ccccc2-c2ccccc21", "label 0"],
  ["Cc1occc1C(=O)Nc1cccc(Cn2cccn2)c1", "label 0"],
  ["Cc1ccc(S(=O)(=O)NCc2cn3ccsc3n2)c(C)c1", "label 0"],
  ["Cc1ccccc1S(=O)(=O)N1[C@@H](c2cccc(Cl)c2)C(C(=O)OC(C)(C)C)=CC[C@H]1c1ccc(Cl)cc1", "label 1"],
  ["CC(C)(O)C#Cc1ncc(C(F)(F)F)cc1Cl", "label 0"],
  ["Cc1occc1C(=O)NNC(=S)NCC(C)C", "label 0"],
  ["CC(=O)Nc1nc2ccccc2n1Cc1ccc(C)cc1", "label 1"],
  ["CN(Cc1ccccc1Cl)C(=O)C1CCC(=O)N(CCc2cccc(F)c2)C1 (configuration not stated)", "label 0"],
  ["C=CCn1nc(C(=O)OCC)cc1-c1sc(NC(=O)c2ccccc2)nc1C", "label 1"],
  ["CCOC(=O)c1cc(-c2sc(NC(=O)c3ccccc3)nc2C)n(CCO)n1", "label 1"],
  ["C/C=N/N(c1ccccc1)c1ccccc1", "label 0"]
]}

###

- TEST_SUMMARY: qHTS for Inhibitors of human tyrosyl-DNA phosphodiesterase 1 (TDP1): qHTS in cells in absence of CPT; further: nearly all actives have a fitted effect of over 55% in size
- RECORDED_CONDITIONS: DT40 Tdp1-/- hTDP1 cells, no CPT, ATP luminescence, 48 h
Hit rate of the full screen: of about 420,000 compounds, about 64,000 (15%) were called active. About 27% were inconclusive and are not listed. The call rests on the fitted dose curve; in most records, active means well fitted inhibition curve with a large enough effect; inconclusive means small, poorly fitted or top-dose-only effect; inactive means flat fitted curve, though single readings scatter. A selection follows.
Possible outcomes: y = active, n = inactive

{"columns": ["COMPOUND", "GROUP"],
 "data": [
  ["COC(=O)c1ccc(/C=N\\n2c(C)nnc2C)cc1", "n"],
  ["CCOC(=O)c1nnn(-c2nonc2-n2cccc2)c1CN1CCC(C(=O)OCC)CC1", "y"],
  ["COc1cc(C(=O)NCCOC(=O)c2cccc(N(C)C)c2)cc(OC)c1OC", "n"],
  ["COc1ccc(N2CCN(C(=O)c3ccc(N4CCCCS4(=O)=O)cc3)CC2)cc1", "n"],
  ["Cn1c(=O)[nH]c(=O)c2c1nc(Br)n2CCCCSc1nc2ccccc2o1", "y"],
  ["Cc1ccccc1CNC(=O)CCC(=O)N1Cc2ccccc2Oc2ncccc21", "n"],
  ["Cc1nn(-c2ccccc2)c(C)c1NC(=O)COc1ccc(Cl)cc1Cl", "y"],
  ["Cc1cc2nc3c(=O)n(Cc4ccccc4)c(=O)[nH]c3nc2cc1N", "n"],
  ["C/C=C/c1ccc(OCC(=O)OCC(=O)Nc2c(C)nn(-c3ccccc3)c2C)c(OC)c1", "n"],
  ["N/C(=N\\S(=O)(=O)c1ccc(Cl)cc1)N1CCOCC1", "n"],
  ["CN(C)c1ccc(CN2CCOc3ccc(CN4CCC(O)(c5cccnc5)CC4)cc3C2)cc1", "y"],
  ["CCOC(=O)N1CCC(N2CCOc3ccc(CN4CCC(O)(c5cccnc5)CC4)cc3C2)CC1", "n"],
  ["O=C(CCl)N(Cc1cccc([N+](=O)[O-])c1)c1cccc(Cl)c1", "y"],
  ["CC1CCCCC1NC(=O)COC(=O)Cc1ccc(Br)cc1 (centres undefined)", "n"],
  ["O=C(CSc1nnnn1-c1ccccc1)NCc1ccco1", "n"],
  ["CC(C)C12CN3CC(C(C)C)(CN(C1)C3c1ccc(OCc3ccccc3)cc1)C2=O (centres undefined)", "n"],
  ["CCn1nc(C(=O)NNS(=O)(=O)c2cc(/C=C/C(=O)O)cc(OC)c2OC)c2ccccc2c1=O", "n"],
  ["Cc1ccc(N2CC(C(=O)N3CCC4(CC3)CC(=O)c3ccccc3O4)CC2=O)cc1C (centres undefined)", "y"],
  ["CCc1ccc(N2CC(C(=O)N3CCCCCC3)CC2=O)cc1 (centres undefined)", "n"],
  ["Cc1ccc(NC(=O)Nc2ccc3oc(C)nc3c2)cc1", "n"],
  ["Cn1ncc2c(Nc3cccc4ccccc34)ncnc21", "n"],
  ["CCNC(=O)Nc1ccc(S(=O)(=O)Nc2cnc(C)nc2C)cc1", "n"],
  ["CCc1cccc(C)c1NC(=O)COC(=O)CC1CCCC1", "n"],
  ["Cc1cc(C)n(C(=O)CCNC(=O)c2ccccc2Cl)n1", "n"],
  ["CCc1cccc(CC)c1NC(=O)COc1ccccc1C(=O)c1cc(C#N)c(=O)n(C2CCCCC2)c1", "y"],
  ["C/C(=N\\OC(=O)c1ccccc1)c1c(C)nc2cc(C)ccn12", "n"],
  ["COc1ccc(CCc2nc(-c3cccs3)no2)cc1", "n"],
  ["CN(CC(=O)NCCc1ccc(S(N)(=O)=O)cc1)CC(=O)Nc1ccc(F)c(F)c1F", "n"],
  ["O=C(CCN1C(=O)C2C3C=CC(C3)C2C1=O)Nc1ccccc1F (centres undefined)", "n"],
  ["Cc1cc(NC(=O)c2ccc(-c3ccc(Cl)cc3)o2)cc(-c2nc3ncccc3o2)c1O", "n"],
  ["COc1ccccc1-c1nnc(SCC(=O)Nc2ccccc2)o1", "n"],
  ["COc1cccc(CNC(=O)c2ccc3c(Cl)c4c(nc3c2)CCCC4)c1", "y"],
  ["O=C(COc1cccnc1[N+](=O)[O-])Nc1ccc(Cl)cc1F", "n"],
  ["CCn1nc(C)c(NC(=O)/C=C/c2ccc(OC)c(COc3ccc(Br)cc3)c2)c1C", "y"],
  ["COc1ccc(/C=N/Nc2nc3ccccc3c(=O)[nH]2)cc1", "n"],
  ["CC(=O)N1CCN(CCN=CC2=C(O)CC(C)(C)CC2=O)CC1", "n"],
  ["CCOC(=O)c1nnn(-c2nonc2-n2cccc2)c1CN1CCOCC1", "n"],
  ["C[C@@H]1CN(Cc2ccc3c(c2)CN(Cc2ccc(Oc4ncccn4)cc2)CCO3)C[C@H](C)O1", "n"],
  ["CC(Oc1ccccc1)C(=O)N[C@@H]1C(=O)N2[C@@H]1SC(C)(C)[C@@H]2C(=O)O (some centres undefined)", "n"],
  ["CN(CCO)c1ccc(/C=N/Nc2nncc3ccccc23)cc1", "y"],
  ["Cc1ccc(CNC(=O)CSc2c3c(nc4cc(Cl)ccc24)CCCC3)cc1", "y"],
  ["Cc1cc(C(=O)OCC(=O)Nc2ccc(F)c(F)c2)c(C)o1", "n"],
  ["CC1(C)CCSC(/C=C/c2ccccc2)=N1", "y"],
  ["COc1cc(/C=C2\\C(=N)N3N=C(CC(=O)N4CCOCC4)SC3=NC2=O)cc(OC)c1OC", "n"]
]}
